Assay: binders from COS7 lysate, DM2A8 probe, primary screen, torsin A project, cell lysate, small-molecule microarray, fluorescence 635/667 (AID 1065)
Conditions: higher = more signal, COS7 lysate expressing mutant human TOR1A
Assign 1.0 whenever composite z-score does not fall below 0.2; assign 0.0 whenever it does.

{"compound": "NC(=O)NCC#Cc1ccc2c(c1)[C@]1(C(=O)N2)[C@H](C(=O)NC[C@H](O)c2ccccc2)[C@H]2C(=O)O[C@H](c3ccccc3)[C@H](c3ccccc3)N2[C@@H]1c1ccc(OCCO)cc1", "category.label": 1.0}
{"compound": "C=C(COC)C(=O)CC[C@@H](OC(=O)c1cccnc1)c1ccc(OCCO)cc1", "category.label": 0.0}
{"compound": "CCOC(=O)[C@H]1[C@@H]2C(=O)N3CCC[C@H]3[C@H](O[Si](C(C)C)(C(C)C)C(C)C)[C@H]2C=C2CCN(S(=O)(=O)c3ccc(C)cc3)C[C@H]21", "category.label": 1.0}
{"compound": "O=C1OCCC=C[C@H]2OC34C=CCN(Cn5nnc6ccccc65)C(=O)[C@H]3N(CCCCCCO)C(=O)[C@@H]4C12 (some centres not stated)", "category.label": 0.0}
{"compound": "CN1C(=O)C2C=CC(C(O)c3cccc(O)c3)N(Nc3ccccc3)C2C1=O (configuration not stated)", "category.label": 0.0}

From here, focus on the item given below.
Check the entry COCCOC(=O)N1C(=O)[C@@]2(c3cc(C#Cc4ccc(OC)cc4)ccc31)[C@H](C(=O)Nc1nc3ccccc3s1)[C@H]1C(=O)O[C@H](c3ccccc3)[C@H](c3ccccc3)N1[C@@H]2c1ccc(O)cc1 : does composite z-score equal or exceed 0.2?
0.0

Recorded values, source PubChem BioAssay.
